These entries and their values trace back to the supplement of paper PMC10567573.

B1: NCK2 (parent)
chain: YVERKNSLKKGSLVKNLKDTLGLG

variants of: B1; experiment: protein stability index of a GFP-peptide fusion (GPS, HEK-293T) (PSI 1-6); higher = more stable; details: c terminus: a fixed tail appended;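 also: lentivirally expressed fusions sorted by FACS into six bins by GFP to DsRed ratio, PSI derived from sequencing read proportions per bin multiplied by bin number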
Listed below: protein stability index values for each entry.

| record.sequence | protein stability index |
| --- | --- |
| YVERKNSDKKGSLVKNLKDTLGLG | 2.92 |
| YVERKNALKKGSLVKNLKDTLGLG | 2.29 |
| YVERKNSLKKGSLVKNKKDTLGLG | 3 |
| YAERKNSLKKGSLVKNLKDTLGLG | 3.09 |
| YVERKNSLKKGSLVKPLKDTLGLG | 2.61 |
| MVERKNSLKKGSLVKNLKDTLGLG | 3.64 |
| WVERKNSLKKGSLVKNLKDTLGLG | 2.29 |
| YCERKNSLKKGSLVKNLKDTLGLG | 2.47 |
| YVERKNSLKKGSLVKNPKDTLGLG | 2.13 |
| YVERKNSLKKGSLVANLKDTLGLG | 2.09 |
| YVERKNSEKKGSLVKNLKDTLGLG | 2.96 |
| YVERKNSLKKGSLVKNLKDTLGLV | 1.67 |
| YVERKNSLKKGCLVKNLKDTLGLG | 2.13 |
| YVERKVSLKKGSLVKNLKDTLGLG | 1.58 |
| YQERKNSLKKGSLVKNLKDTLGLG | 3.39 |
| YVERKNTLKKGSLVKNLKDTLGLG | 2.16 |
| YVERKNSLKKGSLVKNLKDTLPLG | 2.44 |
| YVERKNSLKKGSLVKNLKDTFGLG | 2.18 |
| YVERENSLKKGSLVKNLKDTLGLG | 2.92 |
| YVERRNSLKKGSLVKNLKDTLGLG | 2.52 |
| YVERKNSLKKISLVKNLKDTLGLG | 1.68 |
| YVERKNYLKKGSLVKNLKDTLGLG | 1.74 |
| YVERKNSLKCGSLVKNLKDTLGLG | 2.29 |
| YVERKNSLKKGSLVKNLKDTLRLG | 1.97 |
| YVERKNSLKKGSLVKNLKDTNGLG | 2.33 |
| YVERKNSLKKGSLVKNLKPTLGLG | 1.95 |
| YVERKNSLKKGSLVKNLKDTLGMG | 2.7 |
| YVERQNSLKKGSLVKNLKDTLGLG | 2.39 |
| YVERKNSLKKGSLVKNLDDTLGLG | 2.39 |
| YVERKNSLKKGSLVKRLKDTLGLG | 1.98 |
| SVERKNSLKKGSLVKNLKDTLGLG | 3.3 |
| YVERKNSMKKGSLVKNLKDTLGLG | 2.57 |
| YVERKNSLKKGSLVKNLKDTLGHG | 2.02 |
| YVLRKNSLKKGSLVKNLKDTLGLG | 2.07 |
| YVERKCSLKKGSLVKNLKDTLGLG | 1.73 |
| YVERKNSLLKGSLVKNLKDTLGLG | 3.07 |
| RVERKNSLKKGSLVKNLKDTLGLG | 3.18 |
| YVECKNSLKKGSLVKNLKDTLGLG | 1.83 |
| YVERKNSLKKGSLVKNLKDTLKLG | 2.09 |
